Taken from the METLIN SMRT retention time set (Domingo-Almenara et al. 2019).

// RP-LC retention time lookup, one value per entry
assay: gradient 5% acetonitrile 3 min, to 50% in 2 min, to 85% in 15 min, held 3 min, 100 µL/min; details: column: Zorbax Extend-C18 2.1 x 50 mm; eluents: water / acetonitrile, 0.1% formic acid
Number only, in s; omit the unit.

In the examples that follow, each entry is paired with its recorded RP-LC retention time.
compound	property label	unit of measure	reported result
CCn1cc(-c2nc(C)c(C(=O)NCc3cccc(OC)c3)s2)c2cccnc21	RP-LC retention time	s	904
C=CCNC(=O)C1CCN(S(=O)(=O)c2cc(Cl)ccc2OCC)CC1	RP-LC retention time	s	767
Cc1ncsc1C1N(C2CCN(S(=O)(=O)c3ccccc3)CC2)C(=O)C12CCCC2 (centres undefined)	RP-LC retention time	s	850
CCc1nc2cc(-c3noc(-c4cc(F)ccc4F)n3)ccc2o1	RP-LC retention time	s	1180
Cc1nc2sc(C)c(C)n2c(=O)c1NC(=O)COc1ccc(Cl)cc1Cl	RP-LC retention time	s	827

Consider now this further compound.
Lab book: RP-LC retention time of Cc1ccc(C(=O)Nc2nc(-c3ccc4c(c3)NC(=O)C(C)O4)cs2)cc1 (centres undefined) noted as 918

====

// RP-LC retention time lookup, one value per entry
experiment: gradient 5% acetonitrile 3 min, to 50% in 2 min, to 85% in 15 min, held 3 min, 100 µL/min; conditions: column: Zorbax Extend-C18 2.1 x 50 mm; eluents: water / acetonitrile, 0.1% formic acid
Please state the number and follow it with the unit.

In the examples that follow, each entry is paired with its recorded RP-LC retention time.
compound	reported result
CCOc1ccc(C2c3c(oc4ccc(C)cc4c3=O)C(=O)N2CCCN2CCOCC2)cc1 (stereo not given)	812 s
COc1ccc2c(c1)C=C(C(=O)Nc1cc(OC)c(OC)c(OC)c1)CO2	909 s
CCc1cccc(NC(=O)Cn2nc(C(=O)N3CCOCC3)c3ccccc32)c1	840 s

Lab book: RP-LC retention time of CCN1CCCn2cc(S(=O)(=O)Nc3ccc(Cl)cc3C)cc2C1=O noted as 790 s

Lab book: RP-LC retention time of O=C(NC1CCCCC1)C1CCN(S(=O)(=O)c2ccc3[nH]c(=O)sc3c2)CC1 noted as 765 s

====

assay: gradient 5% acetonitrile 3 min, to 50% in 2 min, to 85% in 15 min, held 3 min, 100 µL/min; conditions: column: Zorbax Extend-C18 2.1 x 50 mm; eluents: water / acetonitrile, 0.1% formic acid
property label: RP-LC retention time (s)
Number only, in s; omit the unit.

compound	RP-LC retention time [s]
CSc1ncn(-c2nc(N(C)C)nc(N3CCCCCC3)n2)n1	1200
CCn1cc(C(=O)Nc2cccc(Cl)c2)c2cccnc21	938
CC(NC(=O)C1CCN(CCc2cn(C)c3ncccc23)CC1)c1ccc(F)cc1 (stereo unspecified)	616
Cc1cccc(S(=O)(=O)Nc2ccc3c(c2)CCC(=O)N3)c1	689
COc1cc(OC)c(NC(=O)N2CCc3nc(-c4ccc(F)cc4)ncc3C2)cc1Cl	1020
Cc1ccc(C)c(NC(=O)N2CCC(N3CCN(Cc4ccc(F)cc4)C(=O)C3=O)CC2)c1	754
CCNC(=O)[C@H]1O[C@@H](n2cnc3c(N)nc(NCCc4ccc(CCC(=O)O)cc4)nc32)C(O)[C@H]1O (stereo partly specified)	503
COc1ccccc1C(=O)N1CCCC1c1cc(C(C)C)on1 (stereo unspecified)	831
CCC(C(=O)NCCCN1CCCC1)n1nc(C)c2nn(-c3ccccc3)c(C)c2c1=O (stereo unspecified)	645
O=C(c1ccccn1)N1CCC(n2c(-c3ccsc3)nc3cccnc32)C1 (stereo unspecified)	625

Lab book: RP-LC retention time of Cc1ccc(NC(=O)CN2C(=O)CN(C)C(=O)c3ccccc32)c(Br)c1 noted as 734

Lab book: RP-LC retention time of O=C(NCCS(=O)(=O)N1CCN(c2ncccn2)CC1)c1cccs1 noted as 663

Lab book: RP-LC retention time of CCCN1CCN(C(=O)CN2C(=O)C3CCCCN3c3ccc(C(=O)N4CCCCC4)cc32)CC1 (stereo unspecified) noted as 652

Lab book: RP-LC retention time of COc1ccc(-c2nc3cnccn3c2Nc2ccc(C(N)=O)cc2)cc1OC noted as 593

Lab book: RP-LC retention time of COCCn1cc(C(=O)Nc2ccc(N(C)C)cc2)c2nn(-c3ccccc3)c(=O)c-2c1 noted as 710

Lab book: RP-LC retention time of CCCN(C(=O)c1ccccc1OC)c1nc(-c2ccccc2)cs1 noted as 1310

====

assay: gradient 5% acetonitrile 3 min, to 50% in 2 min, to 85% in 15 min, held 3 min, 100 µL/min; conditions: column: Zorbax Extend-C18 2.1 x 50 mm; eluents: water / acetonitrile, 0.1% formic acid
property label: RP-LC retention time (s)
Number only, in s; omit the unit.

In the examples that follow, each entry is paired with its recorded RP-LC retention time.
molecule	reported result
CN(C)CCNC(=O)Cn1c2ccccc2c2cnn(C)c(=O)c21	576
Cc1ccc(C2CC(=O)c3cnc(Nc4nc(C)c5ccc(C)cc5n4)nc3C2)cc1 (configuration not stated)	808
CCN(C(=O)C(=O)c1c(C)[nH]c2ccccc12)c1ccccc1	809
COc1cccc(CNC(=O)N2CCN(C3=CC4=NC(C)CN4C=N3)CC2)c1 (configuration not stated)	649

Lab book: RP-LC retention time of CCc1ccccc1S(=O)(=O)N1CC=C(c2cn(C)c3ncccc23)CC1 noted as 1090

Lab book: RP-LC retention time of COc1ccc(S(=O)(=O)N2CCc3nn(CC(C)C)c(=O)n3CC2)cc1OC noted as 745

Lab book: RP-LC retention time of Cc1oc2c(c1C(=O)N(C)C)CN(S(=O)(=O)Cc1ccccc1)CC2 noted as 740

Lab book: RP-LC retention time of O=C(NCCCN1CCC(N2CCCCC2)CC1)c1cc(=O)n2c(nc3ccccc32)s1 noted as 577

Lab book: RP-LC retention time of CN1CCC(NC(=O)c2n[nH]c3c2CN(C(=O)c2cc(F)cc(F)c2)CC3)CC1 noted as 597

Lab book: RP-LC retention time of CCc1ccc(NC(=O)CSC2=C(C#N)C3(CCCCC3)C(C#N)C(=O)N2)cc1 (configuration not stated) noted as 1030

Lab book: RP-LC retention time of COc1ccc(-c2cn3c(CC(=O)Nc4ccccc4)csc3n2)cc1OC noted as 702

Lab book: RP-LC retention time of O=C(Nc1cccc(Cl)c1)C1CCCN(S(=O)(=O)Cc2ccccc2)C1 (configuration not stated) noted as 1030

====

test: gradient 5% acetonitrile 3 min, to 50% in 2 min, to 85% in 15 min, held 3 min, 100 µL/min; settings: column: Zorbax Extend-C18 2.1 x 50 mm; eluents: water / acetonitrile, 0.1% formic acid
property label: RP-LC retention time
Please state the number and follow it with the unit.

In the examples that follow, each entry is paired with its recorded RP-LC retention time.
molecule	property label	reported result
O=C(Nc1ccc2c(c1)OCCO2)N1CCC(Cc2nncn2-c2ccccc2)CC1	RP-LC retention time	706 s
Cc1c(Cl)cccc1NC(=O)NCC1CCOCC1	RP-LC retention time	720 s
CCc1nnc(NC(=O)c2c[nH]c3c(Cl)cccc3c2=O)s1	RP-LC retention time	693 s
CCN1C(=O)c2cccnc2Sc2cc(CNC(=O)c3ccccc3F)ccc21	RP-LC retention time	702 s
Cc1cccc(NC(=O)Cn2nc3c(N(C)C4CCCCC4)nccn3c2=O)c1	RP-LC retention time	714 s

Lab book: RP-LC retention time of Cc1nc2c(C(=O)N3CCN(c4ccccn4)CC3)cnn2c(C)c1Cc1ccccc1Cl noted as 697 s

Lab book: RP-LC retention time of Cc1cc(C)cc(NS(=O)(=O)c2cc(-c3[nH]ncc3C(=O)N(C)C)oc2C)c1 noted as 718 s

====

// RP-LC retention time lookup, one value per entry
assay: gradient 5% acetonitrile 3 min, to 50% in 2 min, to 85% in 15 min, held 3 min, 100 µL/min; conditions: column: Zorbax Extend-C18 2.1 x 50 mm; eluents: water / acetonitrile, 0.1% formic acid
Number only, in s; omit the unit.

compound	unit of measure	RP-LC retention time
CC(=O)N1CCc2cc(S(=O)(=O)C(C)CC(=O)N3CCN(Cc4ccccc4)CC3)ccc21 (stereo not given)	s	960

Consider now this further compound.
Lab book: RP-LC retention time of CN(C)c1cnc(-n2cc(NC(=O)c3ccc(F)cc3)cn2)nc1 noted as 723

====

assay: gradient 5% acetonitrile 3 min, to 50% in 2 min, to 85% in 15 min, held 3 min, 100 µL/min; conditions: column: Zorbax Extend-C18 2.1 x 50 mm; eluents: water / acetonitrile, 0.1% formic acid
// RP-LC retention time lookup, one value per entry
Number only, in s; omit the unit.

In the examples that follow, each entry is paired with its recorded RP-LC retention time.
compound	unit of measure	RP-LC retention time
CC(=O)SCc1nc(SCC(=O)Nc2ccccc2C)n[nH]1	s	623
CCOc1ccc2ncc(C(=O)c3ccc(C)cc3)c(N3CCN(CC)CC3)c2c1	s	622
COc1ccc(S(=O)(=O)N2CCC(CCOc3ccccc3F)C2)cc1 (centres undefined)	s	1060
CC(=O)c1ccc(NC(=O)Cn2cnc3nc4c(cc3c2=O)CCCC4)cc1	s	671
Nc1nc(-c2ccccc2)nn1C(=O)c1ccccc1	s	904
Cc1nn(CC(=O)NCc2ccncc2)c(=O)c2nc(-c3ccccc3)sc12	s	615

Lab book: RP-LC retention time of O=c1n(Cc2cc(F)cc(F)c2)nc2c(S(=O)(=O)N3CCCCC3)cccn12 noted as 903

Lab book: RP-LC retention time of Clc1ccccc1-c1nnc2sc(-c3ccc4ccccc4n3)nn12 noted as 1150

Lab book: RP-LC retention time of Cc1ccc(F)c(-n2nnc(C(=O)O)c2-c2ccccn2)c1 noted as 917

Lab book: RP-LC retention time of CCn1ccc(C(=O)N2CC(c3nc(C4CC4)no3)C3(CCN(C)CC3)C2)n1 (centres undefined) noted as 586

Lab book: RP-LC retention time of CNC(=O)C1CCCN(c2nc3ncn(CC(=O)Nc4cc(C)cc(C)c4)c(=O)c3s2)C1 (centres undefined) noted as 694

Lab book: RP-LC retention time of Cn1c(CN(c2ccc(F)cc2)S(C)(=O)=O)nnc1SCc1nnc(-c2ccccc2)o1 noted as 710
